Source listed as patent US6777440B2.

READOUT_TYPE: melting point

Supply measured melting point of `CON(Cc1ccc(F)c(Br)c1)C(=O)/C=C(\O)C(=O)O` in your reply. 140 to 141 °C

Using the record for `CON(Cc1ccc(F)cc1Cl)C(=O)/C=C1\OC(C)(C)OC1=O` , state its measured melting point. 127 to 128 °C

Given `CON(Cc1ccc(NC(C)=O)cc1)C(=O)/C=C1\OC(C)(C)OC1=O` , respond with its melting point. 212 to 215 °C (dec.)

Answer with the recorded melting point of `CON(Cc1ccc(C)cc1)C(=O)/C=C(\O)C(=O)O` only. 108 to 111 °C (dec.)

Note melting point for the compound shown: `COC(=O)c1ccc(CN(OC)C(=O)C=C(O)C(=O)O)cc1` 110 to 111 °C

Input `CON(Cc1ccc(F)c(C)c1)C(=O)/C=C1\OC(C)(C)OC1=O` , output reported melting point. 107 to 108 °C

Indicate the recorded melting point value for this compound: `COc1ccc(CN(OC)C(=O)/C=C(\O)C(=O)O)cc1` 83 to 86 °C

Write down melting point measured for item `CON(Cc1ccc(F)cc1)C(=O)/C=C(\O)C(=O)O` 129 °C (dec.)

Please list melting point recorded for the compound `CON(Cc1ccc(C(=O)OC(C)(C)C)cc1)C(=O)/C=C1\OC(C)(C)OC1=O` 137 to 138 °C

Answer with the recorded melting point for the compound listed here: `CON(Cc1ccc(F)c(C#N)c1)C(=O)/C=C(\O)C(=O)O` 144 to 151 °C (dec.)

Write down melting point measured for item `O=C(O)CON(Cc1ccc(F)cc1)C(=O)/C=C(\O)C(=O)O` 135 to 138 °C

Give the value of melting point reported for the following: `CON(Cc1ccc(Cl)cc1)C(=O)/C=C1\OC(C)(C)OC1=O` 129 to 130 °C

Supply reported melting point belonging to this compound: `CON(Cc1ccccc1OC(C)C)C(=O)/C=C1\OC(C)(C)OC1=O` 103 °C

Please give measured melting point of the following entry: `CON(Cc1ccccc1)C(=O)/C=C1\OC(C)(C)OC1=O` 109 to 110 °C

Give me measured melting point, please, for this compound: `CON(Cc1ccc(C)c(F)c1)C(=O)/C=C1\OC(C)(C)OC1=O` 131 °C
